Target: type A botulinum toxin light chain (BoNT/A-LC) (Clostridium botulinum)
Sequence (P0DPI1 2-448 limits assumed): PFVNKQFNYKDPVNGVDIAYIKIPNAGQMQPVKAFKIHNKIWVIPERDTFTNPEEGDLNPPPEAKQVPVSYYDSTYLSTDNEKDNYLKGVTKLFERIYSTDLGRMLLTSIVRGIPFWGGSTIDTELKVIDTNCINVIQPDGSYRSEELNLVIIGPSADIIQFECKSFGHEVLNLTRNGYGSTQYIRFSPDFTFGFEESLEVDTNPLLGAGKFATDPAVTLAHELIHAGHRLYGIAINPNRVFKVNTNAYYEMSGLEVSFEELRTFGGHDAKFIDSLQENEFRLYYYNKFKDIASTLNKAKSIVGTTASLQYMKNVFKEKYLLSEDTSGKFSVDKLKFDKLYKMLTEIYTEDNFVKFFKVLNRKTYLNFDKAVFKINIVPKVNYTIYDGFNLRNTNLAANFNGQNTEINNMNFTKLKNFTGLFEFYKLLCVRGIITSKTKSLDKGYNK
Assay: biochemical
Conditions: read-out: Inhibition rate %
REPORTED ENDPOINT: inhibition at 100 µg/mL (%)
Report the value in % with no unit label.

Example entries and their recorded answers appear below.
The compound listed as CCCOc1ccc(Cl)cc1NC(=O)CSc1ncccc1C(=O)O shows inhibition at 100 µg/mL equal to 18.1

Entry under test: O=C(CSc1ncccc1C(=O)[O-])Nc1ccc(OC(F)(F)F)cc1.[K+] . Its inhibition at 100 µg/mL was 14.3

response.value for COc1ccc(OC)c(NC(=O)CSc2ncccc2C(=O)O)c1 (field: inhibition at 100 µg/mL) = 17.9

More entries:
Reported inhibition at 100 µg/mL for O=C(CSc1ncccc1C(=O)[O-])Nc1cc(Br)ccc1Br.[K+] was 9.3

Note to self: inhibition at 100 µg/mL recorded for CCOc1ccccc1NC(=O)CSc1ncccc1C(=O)O was 2.7
